// data source = patent US7026318B2

Molecular target: human type V sPLA2 (Homo sapiens)
Construct: made in house; unpurified culture supernatant
Sequence (P39877 21-138): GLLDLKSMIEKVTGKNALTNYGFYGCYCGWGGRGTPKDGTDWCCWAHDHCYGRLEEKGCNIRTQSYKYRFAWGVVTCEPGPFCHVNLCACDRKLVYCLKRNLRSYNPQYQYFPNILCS
Experiment: Inhibition test of human secretory phospholipase A2, chromogenic assay, type V enzyme
Format: biochemical
READOUT TYPE: IC50

Quick one: IC50 for "CC(C)Cc1c(C(=O)C(N)=O)c2c(OCC(=O)NS(=O)(=O)c3ccccc3)cccc2n1Cc1ccc(F)cc1" ? > 1000 nM

====

Catalogue of melting point readings, one per entry.

Cc1cn2c(Cc3ccccc3)c(CC(C)C)c(C(=O)C(N)=O)c2c(OCC(=O)NS(=O)(=O)c2ccccc2)n1 [Compound I-15]; 193 to 195 °C
CCCCc1c(C(=O)C(N)=O)c2c(OCC(=O)O)nc(C)cn2c1Cc1ccccc1 [Compound I-5]; 205 to 207 °C
CC(C)Cc1c(C(=O)C(N)=O)c2c(OCC(=O)O)cccc2n1CC1CCCCC1 [Compound I-12]; 195.5 to 197 °C
Cc1cn2c(Cc3ccccc3)c(CC(C)C)c(C(=O)C(N)=O)c2c(OCC(=O)NS(C)(=O)=O)n1 [Compound I-16]; 211 to 212 °C

Quick one: melting point for "CC(C)Cc1c(C(=O)C(N)=O)c2c(OCC(=O)NS(=O)(=O)C(C)C)cccc2n1Cc1ccccc1" ? 218.5 to 220 °C

Quick one: melting point for "CCCS(=O)(=O)NC(=O)COc1cccc2c1c(C(=O)C(N)=O)c(CC(C)C)n2Cc1ccccc1" ? 181 to 183 °C

Quick one: melting point for Cc1cn2c(Cc3ccccc3)c(Cc3ccccc3)c(C(=O)C(N)=O)c2c(OCC(=O)O)n1 [Compound I-7] ? 258 to 260 °C

Quick one: melting point for Cc1cn2c(CC3CCCC3)c(CC(C)C)c(C(=O)C(N)=O)c2c(OCC(=O)O)n1 [Compound I-3] ? 193 to 194.5 °C

Quick one: melting point for Cc1cn2c(Cc3ccccc3)c(CC(C)C)c(CC(N)=O)c2c(OCC(=O)NS(=O)(=O)C(C)C)n1 [Compound I-36] ? 162 to 163 °C

====

READOUT TYPE: melting point

Solved cases below.
CCS(=O)(=O)NC(=O)COc1cccc2c1c(C(=O)C(N)=O)c(CC(C)C)n2Cc1ccccc1; 200 to 201 °C
Cc1cc(OCC(=O)NS(C)(=O)=O)c2c(C(=O)C(N)=O)c(CC(C)C)n(Cc3ccccc3)c2c1; 211 to 214 °C
CC(C)Cc1c(C(=O)C(N)=O)c2c(OCC(=O)O)cccc2n1Cc1ccc(F)cc1; 172 to 173.5 °C
CCS(=O)(=O)NC(=O)COc1nc(C)cn2c(Cc3ccccc3)c(CC(C)C)c(C(=O)C(N)=O)c12; 214 to 215 °C
Cc1cc(OCC(=O)NS(=O)(=O)c2ccccc2)c2c(C(=O)C(N)=O)c(CC(C)C)n(Cc3ccccc3)c2c1; 145 to 147 °C
Cc1cn2c(Cc3ccccc3)c(CC(C)C)c(C(=O)C(N)=O)c2c(OCC(=O)O)n1; 206 to 208 °C

Quick one: melting point for "CCCS(=O)(=O)NC(=O)COc1nc(C)cn2c(Cc3ccccc3)c(CC(C)C)c(C(=O)C(N)=O)c12" ? 205 to 207 °C

====

READOUT TYPE: melting point

Solved cases below.
Cc1cn2c(Cc3ccccc3)c(CC(C)C)c(C(=O)C(N)=O)c2c(OCC(=O)NS(=O)(=O)C(C)C)n1; 196 to 198 °C
Cc1cn2c(CC3CCCCC3)c(CC(C)C)c(C(=O)C(N)=O)c2c(OCC(=O)O)n1; 209 to 210 °C
CC(C)Cc1c(CC(N)=O)c2c(OCC(=O)NS(=O)(=O)C(C)C)cccc2n1Cc1ccccc1; 189 to 190 °C
Cc1cc(OCC(=O)O)c2c(C(=O)C(N)=O)c(CC(C)C)n(Cc3ccccc3)c2c1; 220 to 221.5 °C
Cc1cc(OCC(=O)O)c2c(C(=O)C(N)=O)c(CC(C)C)c(Cc3ccccc3)n2n1; 245 to 247 °C

Quick one: melting point for "CC(C)Cc1c(C(=O)C(N)=O)c2c(OCC(=O)O)cccc2n1-c1ccccc1" ? 200.5 to 202 °C
